molecular target: Peroxisome proliferator-activated receptor alpha (Homo sapiens); experiment: Agonist activity at PPARalpha in human HepG2 cells; assay type: cell-based
Sequence (Q07869 whole entry): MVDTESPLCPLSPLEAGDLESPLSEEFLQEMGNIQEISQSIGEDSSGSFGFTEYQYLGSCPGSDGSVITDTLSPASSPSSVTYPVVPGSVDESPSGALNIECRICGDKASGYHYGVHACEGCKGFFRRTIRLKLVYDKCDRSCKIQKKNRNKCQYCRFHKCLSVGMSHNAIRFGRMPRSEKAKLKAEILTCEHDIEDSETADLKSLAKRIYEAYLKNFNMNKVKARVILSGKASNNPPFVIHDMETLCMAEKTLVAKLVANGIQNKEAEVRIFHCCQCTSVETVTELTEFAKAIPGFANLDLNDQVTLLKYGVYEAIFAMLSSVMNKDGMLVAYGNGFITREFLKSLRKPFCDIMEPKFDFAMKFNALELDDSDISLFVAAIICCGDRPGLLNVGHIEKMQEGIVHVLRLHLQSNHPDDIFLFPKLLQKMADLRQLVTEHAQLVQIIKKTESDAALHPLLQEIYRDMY
pEC50: −log10 of the molar value.
reported_metric: pEC50

INSERT INTO results (compound_structure, data_value) VALUES
  ('CCO[C@@H](Cc1ccc(OCCn2c(C)ccc2-c2ccc(SC)cc2)cc1)C(=O)O', 12.19);
